assayed_system: Tyrosine-protein phosphatase non-receptor type 1 (Homo sapiens, UniProt P18031)
Sequence (P18031 whole entry): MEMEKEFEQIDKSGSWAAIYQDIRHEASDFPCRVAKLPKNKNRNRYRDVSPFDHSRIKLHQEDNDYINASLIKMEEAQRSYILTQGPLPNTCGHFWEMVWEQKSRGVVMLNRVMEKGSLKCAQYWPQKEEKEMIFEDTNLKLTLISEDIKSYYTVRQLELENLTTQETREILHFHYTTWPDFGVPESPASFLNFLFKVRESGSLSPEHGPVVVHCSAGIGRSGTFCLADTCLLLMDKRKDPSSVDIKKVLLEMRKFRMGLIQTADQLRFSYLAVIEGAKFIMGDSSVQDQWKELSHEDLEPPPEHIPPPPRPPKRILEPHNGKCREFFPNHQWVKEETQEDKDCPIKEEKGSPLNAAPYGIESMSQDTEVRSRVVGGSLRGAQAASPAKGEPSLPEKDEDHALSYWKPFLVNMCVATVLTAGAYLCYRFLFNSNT
procedure_details: Inhibition of recombinant human PTP1B using pNPP as substrate preincubated with compound for 10 mins followed by substrate addition and measured by absorbance based assay
endpoint_label: IC50

COc1cc(/C=C2/NC(=O)N(Cc3ccccc3)C2=O)cc(Cl)c1OCc1cccc(C(=O)O)c1 8.2 µM
